target: Transient receptor potential cation channel subfamily M member 8 (Homo sapiens); assay: […] activity at human TRMP8 expressed in HEK293 cells measured after 24 hrs of cold activation by patch clamp assay; format: cell-based
measured attribute: IC50 (nM)
Answers are plain numbers, in nM.

Prompt: Please report IC50 for the following molecule: Cc1c(N(Cc2ccc(F)c(C(F)(F)F)c2)S(=O)(=O)c2ccc(C(=O)O)cc2)sc2ccccc12
Completion: 2.3

----------
target: Transient receptor potential cation channel subfamily M member 8 (Homo sapiens, UniProt Q7Z2W7); test: Antagonist activity at TRPM8 (unknown origin)
Sequence (Q7Z2W7 whole entry): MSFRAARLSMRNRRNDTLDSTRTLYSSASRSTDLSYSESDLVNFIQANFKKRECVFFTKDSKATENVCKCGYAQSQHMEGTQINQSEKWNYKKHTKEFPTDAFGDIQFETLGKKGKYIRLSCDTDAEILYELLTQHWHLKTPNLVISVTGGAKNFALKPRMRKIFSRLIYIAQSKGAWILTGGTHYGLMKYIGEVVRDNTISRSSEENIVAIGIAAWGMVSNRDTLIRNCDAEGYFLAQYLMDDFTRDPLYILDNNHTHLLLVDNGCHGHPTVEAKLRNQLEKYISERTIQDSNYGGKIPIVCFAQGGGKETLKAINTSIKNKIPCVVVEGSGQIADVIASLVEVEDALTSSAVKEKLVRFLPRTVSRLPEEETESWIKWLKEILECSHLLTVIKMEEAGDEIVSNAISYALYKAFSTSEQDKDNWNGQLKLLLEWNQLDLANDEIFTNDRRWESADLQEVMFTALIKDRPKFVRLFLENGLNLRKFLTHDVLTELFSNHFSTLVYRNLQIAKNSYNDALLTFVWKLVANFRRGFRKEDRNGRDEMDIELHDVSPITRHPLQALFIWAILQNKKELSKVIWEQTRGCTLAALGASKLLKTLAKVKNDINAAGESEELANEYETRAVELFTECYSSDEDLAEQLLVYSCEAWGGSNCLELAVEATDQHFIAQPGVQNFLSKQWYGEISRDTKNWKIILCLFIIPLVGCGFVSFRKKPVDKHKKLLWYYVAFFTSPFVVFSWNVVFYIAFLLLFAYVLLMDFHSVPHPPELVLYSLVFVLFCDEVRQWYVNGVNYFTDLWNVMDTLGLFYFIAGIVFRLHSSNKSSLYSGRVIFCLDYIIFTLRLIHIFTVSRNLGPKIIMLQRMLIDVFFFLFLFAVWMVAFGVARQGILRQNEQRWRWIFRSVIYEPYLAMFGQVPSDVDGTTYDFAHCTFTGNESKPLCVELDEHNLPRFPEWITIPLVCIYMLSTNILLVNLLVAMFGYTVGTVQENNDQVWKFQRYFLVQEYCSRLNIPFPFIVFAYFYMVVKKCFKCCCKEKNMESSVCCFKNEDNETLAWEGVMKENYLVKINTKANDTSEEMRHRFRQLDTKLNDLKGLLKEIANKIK
measured attribute: pIC50
Numbers only, as −log10 of the molar value.

{"compound": "CCCCCc1cc2c(c(O)c1C(=O)O)[C@@H]1C=C(C)CC[C@H]1C(C)(C)O2 [DELTA9-TETRAHYDROCANNABINOLIC ACID A]", "reported": 6.82}

For every listed record, write down its pIC50.
1. Clc1ccccc1C(c1ccccc1)(c1ccccc1)n1ccnc1
2. CCCCCc1cc(O)c(C/C=C(\C)CCC=C(C)C)c(O)c1
3. c1ccc(CN(CCc2c[nH]c3ccccc23)Cc2ccccc2)cc1
4. CCCCC/C=C/C/C=C\C/C=C/C/C=C/CCCC(=O)NCCc1ccc(O)c(O)c1
5. C=C(C)[C@@H]1CCC(C)=C[C@H]1c1c(O)cc(CCCCC)cc1O
6. COc1cc(CNC(=O)CCCC/C=C/C(C)C)ccc1O
7. COc1ccc(CCCOC(Cn2ccnc2)c2ccc(OC)cc2)cc1 (centres undefined)
8. Clc1ccc(COC(Cn2ccnc2)c2ccc(Cl)cc2Cl)cc1 (centres undefined)

Completion:
1: 5.10; 2: 6.80; 3: 6.10; 4: 6.15; 5: 7.22; 6: 6.00; 7: 6.10; 8: 6.38
